This collection of values is drawn from PubChem BioAssay (NCI).

- Test system: CCRF-CEM leukemia
- assayMethodText: NCI tumour cell line growth inhibition, 48 h
This section presents compounds with their documented TGI values.

Observe how each entry below is paired with its result.
smi=CC(C)c1cc(-c2n[nH]c(=O)n2-c2ccc3c(ccn3C)c2)c(O)cc1O recordedmetric=TGI valuereported="> 40.5 µM"
smi=Cc1c(/C=N/NC(=O)c2cc(Br)cc(Br)c2O)c(=O)n(-c2ccccc2)n1C recordedmetric=TGI valuereported="> 100 µM"
smi=NCCOCCOCCNc1nc(Cc2ccccc2)nc(NCCCN2CCCC2=O)n1 recordedmetric=TGI valuereported="> 100 µM"

Measured TGI of COc1ccc(/C(=C2/O[C@@H]([C@H]3COC(C)(C)O3)[C@H]3OC(C)(C)O[C@@H]23)c2cc(OC)c(OC)c(OC)c2)cc1O : > 100 µM

---

- Tested on: COLO 205 colon
- assayMethodText: NCI tumour cell line growth inhibition, 48 h
recordedMetric: log10(TGI) (log10 of the value in µM)
Hi team, quick reminder: these entries are log10 of TGI (µM).

A selection of reference data follows.
compound=CCN(CC)CCC(=O)c1ccc(Oc2ccc(Cl)cc2)cc1 valuereported=1.65
compound=O=C(/C=C(\O)c1ccccc1)C(=O)NNc1ccc([N+](=O)[O-])cc1[N+](=O)[O-] valuereported=1.51
compound="CC(=O)CCCCC(=O)Nc1ccc(CC(NC(=O)OC(C)(C)C)C(=O)NCC(=O)OCc2ccccc2)cc1 (configuration not stated)" valuereported=1.54

Tested on COLO 205 colon, the item NC(=O)c1cc2cc(Cl)cc(Cl)c2oc1=Nc1ccc(F)cc1 showed log10(TGI) equal to 1.61

For the compound O=C1c2ccccc2S(=O)(=O)c2c1cccc2[N+](=O)[O-] , the measured log10(TGI) on COLO 205 colon was 0.44

---

- Test system: TK-10 renal
- assayMethodText: NCI tumour cell line growth inhibition, 48 h
recordedMetric: TGI

molecule=C[C@@H]1C[C@H]2CC[C@H](O2)[C@H](C)C(=O)O[C@@H](C)C[C@@H]2CC[C@@H](O2)[C@@H](C)C(=O)O[C@H](C)C[C@H]2CC[C@H](O2)[C@H](C)C(=O)O[C@@H](C)C[C@@H]2CC[C@@H](O2)[C@@H](C)C(=O)O1 testedtarget="TK-10 renal" valuereported="> 48.5 µM"
molecule="COc1ccc2nc(-c3cccs3)cc(C(O)CN3CCSCC3)c2c1 (stereo unspecified)" testedtarget="TK-10 renal" valuereported="91.8 µM"
molecule="COC(=O)C(=O)C1(CCC(C)=O)c2ccccc2-c2c(C)ccc(C)c21 (stereo unspecified)" testedtarget="TK-10 renal" valuereported="> 100 µM"
molecule=Cc1ccc(C(=O)c2nnc(C(=O)c3ccc(C)cc3)nn2)cc1 testedtarget="TK-10 renal" valuereported="> 100 µM"
molecule=CN1CCC(n2cnc(-c3ccc(F)cc3)c2-c2ccnc(NCCO)n2)CC1 testedtarget="TK-10 renal" valuereported="> 25 µM"

Please examine the following record next.
Entry CCN(CC)CC(C)Nc1ccc([N+](=O)[O-])c2sc3ccccc3c(=O)c12 (stereo unspecified) ; TGI = 54.2 µM

---

The reader will find reported TGI values listed item by item below.
- Tested on: A549 NSCLC
- assayMethodText: NCI tumour cell line growth inhibition, 48 h

compound="CC(C)(Br)C(Br)CCC(C)(Br)C(Br)CO (stereo not given)" valuereported="> 10 µM"

Let me check: COc1ccc(-c2nc3sc4c(c3c(=O)[nH]2)CCCCCC4)cc1 , system A549 NSCLC, measured TGI is > 33.2 µM

A549 NSCLC assay, compound CC(CCC(=O)O)[C@H]1CCC2[C@@H]3CC[C@@H]4CC(O)CC[C@]4(C)C3CC[C@@]21C (stereo not given in full) , recorded TGI = > 100 µM

Query CC(=O)N1C(=O)/C(=C\C(=O)c2ccc([N+](=O)[O-])cc2)c2ccccc21 on A549 NSCLC; TGI returned: > 100 µM

Bench note, A549 NSCLC: entry CCOC(=O)c1c(N2CCCC2)nsc1Nc1ccc(F)cc1 , its TGI = > 100 µM

---

Here the recorded TGI is given for each entry.
- Tested on: SK-OV-3 ovarian
- assayMethodText: NCI tumour cell line growth inhibition, 48 h

Solved cases (5 shown):
compound=CN(C)CC(=O)Nc1ccc(Cn2nnc3c2C(=O)c2nnn(Cc4ccc(NC(=O)CN(C)C)cc4)c2C3=O)cc1 testedtarget="SK-OV-3 ovarian" recordedmetric=TGI valuereported="0.222 µM"
compound=CCN(CC)CSc1nc2ccccc2s1 testedtarget="SK-OV-3 ovarian" recordedmetric=TGI valuereported="> 100 µM"
compound=O=Nc1c(O)cc(Nc2ccc(Br)cc2)c2ccccc12 testedtarget="SK-OV-3 ovarian" recordedmetric=TGI valuereported="30.8 µM"
compound=CCOC(CN=C=S)OCC testedtarget="SK-OV-3 ovarian" recordedmetric=TGI valuereported="> 10 µM"
compound="CC1SC2=NC3=C(c4ccccc4C3=O)C(c3ccc(F)cc3)N2C1=O (stereo unspecified)" testedtarget="SK-OV-3 ovarian" recordedmetric=TGI valuereported="> 100 µM"

Next:
The measured TGI associated with Cc1cc(N(CCC#N)CCC#N)ccc1N=Nc1cccc(C(=O)O)c1 reads > 100 µM

---

- Test system: SW-620 colon
- assayMethodText: NCI tumour cell line growth inhibition, 48 h; in the data active means GI50 below about 0.43 µM; inactive means the rest
Output constraint: value belongs to active, inactive

compound=COC(=O)[C@@]1(C)CC[C@]2(C)CC[C@]3(C)C4=CC=C5C(=CC(=O)C(O)=C5C)[C@]4(C)[C@@H](O)C[C@@]3(C)[C@@H]2C1 testedtarget="SW-620 colon" classification=inactive

IN: Assay result, entry Cc1ccc(-c2cn3ccnc3c(-c3ccc(Cl)cc3)n2)cc1 — outcome?
OUT: active

IN: Hi team, can someone confirm the assay call for N#Cc1c(N2CCCC2)[nH]c(=O)c(C(c2c(Cl)cccc2Cl)c2c(O)c(C#N)c(N3CCCC3)[nH]c2=O)c1O ?
OUT: inactive

IN: Dear colleague, could you share the recorded outcome for COC(C(=O)[O][Ge]([CH3])([CH3])[CH3])c1ccccc1 (centres undefined) when you have a moment?
OUT: inactive

IN: Tell me the recorded outcome of this test for COc1ccc(OC)c(/C=C2\SC(=S)NC2=O)c1 .
OUT: inactive

IN: Recorded test outcome, item CC[C@@H](C(=O)O)C1CC[C@H](C)C([C@@H](C)[C@H](O)[C@H](C)C(=O)[C@H](CC)C2O[C@]3(C=C[C@@H](O)[C@]4(CC[C@@](C)(C5CC[C@](O)(CC)[C@H](C)O5)O4)O3)[C@H](C)C[C@@H]2C)O1 (some centres undefined)
OUT: inactive

IN: // outcome(item) with item = COc1ccc(/C=C2\CCCC3=C2N=C2SC(C)=NN2C3c2ccc(OC)c(OC)c2)cc1OC (centres undefined)
OUT: inactive

---

molecules and their reported TGI
- System: ACHN renal
- assayMethodText: NCI tumour cell line growth inhibition, 48 h

Sample records with TGI:
molecule="C=CC/C=C/Cc1csc(C(C)(C)C(O)C/C=C/C(=C)CCNC(=O)OC)n1 (stereo not drawn)" recordedmetric=TGI valuereported="> 100 µM"
molecule=COc1ccc2c(c1)/C(=C\c1c(C)nc3sccn13)C(=O)N2 recordedmetric=TGI valuereported="69.4 µM"
molecule=NC(=O)N=C(N(Cc1ccccc1)Cc1ccccc1)N(Cc1ccccc1)Cc1ccccc1 recordedmetric=TGI valuereported="> 100 µM"
molecule=O=C(/C=C(\O)c1ccccc1)C(=O)NNc1ccc([N+](=O)[O-])cc1[N+](=O)[O-] recordedmetric=TGI valuereported="66.5 µM"
molecule="O=[N+]([O-])C1C2C=CC(C2)[C@H]1c1ccco1 (stereo partly drawn)" recordedmetric=TGI valuereported="> 100 µM"

Record CCCc1[nH]c(SCCCCCCCCSc2nc(-c3ccc(F)cc3)c(CCC)[nH]2)nc1-c1ccc(F)cc1 , field TGI: > 100 µM

The measured TGI associated with N=C(N)c1ccc(-c2ccc(-c3cc(Cl)cc(Cl)c3)o2)nc1 reads 3.36 µM

Please fill in: TGI reported for O=Nc1c(O)cc(Nc2ccc(Br)cc2)c2ccccc12 = 25.1 µM

Quick note, TGI for COc1cc2c(c(OC)c1)C1c3ccccc3NC(=O)N1CC2 (stereo not drawn) landed at > 100 µM

Please fill in: TGI reported for CC1=C(C(=O)O)N2C(=O)[C@@H](NC(=O)C(c3ccc(O)cc3)N3CSC(=S)N(C(C)C)C3)C2SC1 (stereo partly drawn) = > 100 µM

Summary for this molecule, CC1=Nc2ccccc2S/C1=C(/C)NNC(=O)C(N)=O : TGI is > 100 µM

For this molecule ( COc1ccc(/C(=C2/O[C@@H]([C@H]3COC(C)(C)O3)[C@H]3OC(C)(C)O[C@@H]23)c2cc(OC)c(OC)c(OC)c2)cc1O ), measured TGI is > 100 µM

The reported value for O=C(CCCN1CCC2(CC1)OC(=O)N(c1ccccc1)C2=O)c1ccccc1 in terms of TGI is > 100 µM
